From: PubChem BioAssay (NCI)

Test system: UO-31 renal
Assay overview: NCI-60 one-dose screen, 48 h (100 = growth as untreated, 0 = no growth, -100 = all killed)
Experimental parameters: 10 µM unless noted
Compounds without any hit were thinned out: in the full panel of roughly 83,000, 20% have a hit.
Recorded growth by entry
Answer with a number only, understood to be in %.

{"Compound": "c1ccc2cc(-c3n(Cc4ccc5ccccc5n4)c4ccccc4[n+]3Cc3ccc4ccccc4n3)ccc2c1", "Obs value": -14.3}

Report growth for "N#Cc1c(O)c2c(c(O)c1C#N)C(=O)c1ccccc1C2=O"
68.3

Report growth for "O=c1[nH]c(-c2ccncc2)nc2sc3c(c12)CCCCCC3"
70.5

Report growth for "COc1ccc(/C=C2\SC(=O)N(CN3CCN(c4cc5c(cc4F)c(=O)c(C(=O)O)cn5C4CC4)CC3)C2=O)cc1"
80.2

Report growth for "C[C@]1(CO)C[C@@H](O)C[C@]2(C)[C@@H]1CC[C@@]13C[C@@H]4[C@@H](C[C@H]12)[C@]4(C)C3"
83.9

Report growth for CCOC(=O)C1=C(C)N2C(=NC3=C(CCCC/C3=C\c3ccccc3)C2c2ccccc2)S1 (stereo not drawn)
91

Report growth for "COC(=O)[C@H]1CCCN1C(=O)[C@H]1CCCN1C(=O)[C@@H](Cc1c[nH]c2ccccc12)NC(=S)Nc1cc(C(F)(F)F)cc(C(F)(F)F)c1"
41.1

Report growth for Cc1ccc(S(=O)(=O)N2CCc3ccc(O)c4c3C2Cc2cc(Cl)ccc2-4)cc1 (stereo not drawn)
48.8
